EXPERIMENT_DESCRIPTION: in vivo
REPORTED_CONDITIONS: po
PROPERTY: NOAEL (mg/kg)
Entry rule: numbers only, all in mg/kg.

Ask | Please report NOAEL for the following molecule: COc1ccc2c(c1)CCN(CCN1CCN(c3ccccc3)CC1)CC2
Reply | 100

Ask | Please report NOAEL for the following molecule: COc1ccc2c(c1)CCN(CCc1ccccc1)CC2
Reply | 178

Ask | Please report NOAEL for the following molecule: Oc1ccc2c(c1)CCN(CC=Cc1ccccc1)CC2
Reply | 1000

Ask | Please report NOAEL for the following molecule: C=CCN1CCc2ccc(OC)cc2CC1
Reply | 178

Ask | Please report NOAEL for the following molecule: Oc1ccc2c(c1)CCN(CCc1ccccc1)CC2
Reply | 178

Ask | Please report NOAEL for the following molecule: CC(C)=CCN1CCC2(C)c3cc(O)ccc3CC1C2C (stereo not drawn) [Pentazocine, reference compound]
Reply | 316

* * *

Consider the following compounds and their measured LD50 readings.
EXPERIMENT_DESCRIPTION: I.P. symptomatology (highest tolerated dose, median lethal dose), Table IV
Format: in vivo
REPORTED_CONDITIONS: in vivo, ip
Counter-ions that a name gives are not always drawn.
Entry rule: numbers only, all in mg/kg.

Ask | Please report LD50 for the following compound: CC(C)=CCN1CCc2ccc(O)cc2CC1C (stereo not drawn) [Example 34, hydrochloride]
Reply | 60

Ask | Please report LD50 for the following compound: CCN1CCc2ccc(O)cc2CC1
Reply | 80

Ask | Please report LD50 for the following compound: COc1ccc2c(c1)CCN(CC1CCC1)CC2
Reply | 80

Ask | Please report LD50 for the following compound: Oc1ccc2c(c1)CCN(CC1CC1)CC2
Reply | 30

Ask | Please report LD50 for the following compound: C[C@H]1Cc2ccccc2CCN1 (single isomer, unassigned)
Reply | 60

Ask | Please report LD50 for the following compound: COc1ccc2c(c1)CCN(CC1CC1)CC2
Reply | 100

* * *

EXPERIMENT_DESCRIPTION: Analgesic activity, writhing method
Format: in vivo
REPORTED_CONDITIONS: po
Counter-ions that a name gives are not always drawn.
Lab note: anything with ED50 below 70 mg/kg is marked true; values at 70 mg/kg or higher are marked false.

C=CCN1CCc2ccc(O)cc2CC1 | false

Ask | # TODO verify ED50 < 70 mg/kg strictly for this molecule: c1ccc2c(c1)CCN(CC1CC1)CC2 [Example 37, hydrochloride]
Reply | true

Ask | # TODO verify ED50 < 70 mg/kg strictly for this molecule: Oc1ccc2c(c1)CCN(CC=Cc1ccccc1)CC2
Reply | false

Ask | # TODO verify ED50 < 70 mg/kg strictly for this molecule: COc1ccc2c3c1O[C@H]1[C@@H](O)C=C[C@H]4[C@@H](C2)N(C)CC[C@@]341 [Codeine, reference compound]
Reply | true

Ask | # TODO verify ED50 < 70 mg/kg strictly for this molecule: COc1ccc2c(c1)CCN(CC1CCCC1)CC2
Reply | false

Ask | # TODO verify ED50 < 70 mg/kg strictly for this molecule: COc1ccc2c(c1)CCN(CC=Cc1ccccc1)CC2
Reply | false

Ask | # TODO verify ED50 < 70 mg/kg strictly for this molecule: C=CCN1CCc2ccc(OC)cc2CC1
Reply | false

Ask | # TODO verify ED50 < 70 mg/kg strictly for this molecule: CCCN1CCc2ccc(OC)cc2CC1
Reply | false

Ask | # TODO verify ED50 < 70 mg/kg strictly for this molecule: COc1ccc2c(c1)CCN(CCN1CCN(c3ccccc3)CC1)CC2
Reply | false

* * *

EXPERIMENT_DESCRIPTION: I.P. symptomatology (highest tolerated dose, median lethal dose), Table IV
Type: in vivo
REPORTED_CONDITIONS: in vivo, ip
Structures can show the parent of a compound that is named as a salt.
PROPERTY: LD50

Ask | Please report LD50 for the following compound: COc1ccc(CCN2CCc3ccc(OC)cc3CC2C)cc1 (centres unmarked) [Example 61, hydrochloride]
Reply | ~60 mg/kg

Ask | Please report LD50 for the following compound: Oc1ccc2c(c1)CCN(Cc1ccco1)CC2 [Example 60, hydrochloride]
Reply | ~200 mg/kg

Ask | Please report LD50 for the following compound: COc1ccc2c(c1)CC(C)N(CCc1ccccc1C)CC2 (centres unmarked) [Example 59, hydrochloride]
Reply | ~60 mg/kg

Ask | Please report LD50 for the following compound: CC1Cc2cc(O)ccc2CCN1C (single isomer, unassigned; (+)) [Example 57, hydrochloride]
Reply | > 100 mg/kg

Ask | Please report LD50 for the following compound: CC(=O)Oc1ccc2c(c1)CCN(CC=C(C)C)CC2 [Example 5, hydrochloride]
Reply | ~200 mg/kg

* * *

EXPERIMENT_DESCRIPTION: Narcotic antagonism I.P., Table IV
Type: in vivo
Where a name gives a salt, the structure may show the parent alone.
PROPERTY: Narcotic Antagonism

COc1ccc2c(c1)CC(C)N(CCN1CCN(c3ccccc3)CC1)CC2 (stereo not drawn) [Example 40, dihydrochloride] | Negative
COc1ccc2c(c1)CC(C)N(C)CC2 (stereo not drawn) [Example 39, hydrochloride] | Negative
COc1ccc2c(c1)CCN(CCN1CCN(c3ccccc3)CC1)CC2 | Negative
Oc1ccc2c(c1)CCN(CC1CCC1)CC2 | Negative
COc1ccc2c(c1)CCN(CC=Cc1ccccc1)CC2 | Positive
CCN1CCc2ccc(OC)cc2CC1 | Negative
CCCN1CCc2ccc(O)cc2CC1 | Positive
COc1ccc2c(c1)CC(C)N(CCc1ccccc1)CC2 (stereo not drawn) [Example 36, hydrochloride] | Negative

Ask | Please report Narcotic Antagonism for the following compound: COc1ccc2c(c1)CCN(CC=C(C)C)CC2
Reply | Negative

Ask | Please report Narcotic Antagonism for the following compound: CCCN1CCc2ccc(OC)cc2CC1
Reply | Positive

* * *

EXPERIMENT_DESCRIPTION: I.P. symptomatology (highest tolerated dose, median lethal dose), Table IV
Assay type: in vivo
REPORTED_CONDITIONS: in vivo, ip, read-out: HTD (highest tolerated dose)
Counter-ions that a name gives are not always drawn.
Consider the following compounds and their measured MTD readings.

Guide cases for MTD, answers given:
COc1ccc2c(c1)CC(C)N(CCN1CCN(c3ccccc3)CC1)CC2 (centres unmarked) [Example 40, dihydrochloride] | 30 mg/kg
CC1Cc2cc(O)ccc2CCN1CC1CC1 (centres unmarked) [Example 41, hydrochloride] | ~3 mg/kg
c1ccc2c(c1)CCN(CC1CC1)CC2 [Example 37, hydrochloride] | 10 mg/kg
COc1ccc2c(c1)CCN(CC1CCC1)CC2 [Example 13] | 30 mg/kg
COc1ccc2c(c1)CCN(CCN1CCN(c3ccccc3)CC1)CC2 [Example 31] | 30 mg/kg

Ask | Please report MTD for the following compound: COc1ccc2c(c1)CC(C)NCC2 (centres unmarked) [Example 32]
Reply | ~10 mg/kg

Ask | Please report MTD for the following compound: Oc1ccc2c(c1)CCNCC2 [Example 2]
Reply | 10 mg/kg

Ask | Please report MTD for the following compound: CC(C)=CCN1CCc2ccc(O)cc2CC1C (single isomer, unassigned; (-)) [Example 55, hydrochloride]
Reply | 10 mg/kg

Ask | Please report MTD for the following compound: COc1ccc2c(c1)CC(C)N(CCc1ccccc1)CC2 (centres unmarked) [Example 36, hydrochloride]
Reply | 10 mg/kg

* * *

EXPERIMENT_DESCRIPTION: Narcotic antagonism I.P., Table IV
Type: in vivo
Where a name gives a salt, the structure may show the parent alone.
PROPERTY: Narcotic Antagonism

C=CCN1CCc2ccc(O)cc2CC1 | Positive
COc1ccc2c(c1)CC(C)N(CC1CC1)CC2 (stereo not shown) [Example 42, hydrochloride] | Negative
Oc1ccc2c(c1)CCN(C[C@@H]1C[C@H]1c1ccccc1)CC2 (relative stereo) | Negative
CCN1CCc2ccc(O)cc2CC1 | Positive
COc1ccc2c(c1)CCN(C)CC2 | Negative
COc1ccc2c(c1)CC(C)N(CCc1ccc(O)cc1)CC2 (stereo not shown) [Example 58, hydrochloride] | Negative
Oc1ccc2c(c1)CCN(CC1CC1)CC2 | Positive
COc1ccc2c(c1)CC(C)NCC2 (single isomer, unassigned; (-)) [Example 51] | Negative
CC(=O)Oc1ccc2c(c1)CCN(CC=C(C)C)CC2 [Example 5, hydrochloride] | Positive
C[C@H]1Cc2ccccc2CCN1 (single isomer, unassigned) | Some

Ask | Please report Narcotic Antagonism for the following molecule: COc1ccc2c(c1)CC(C)NCC2 (single isomer, unassigned; (+)) [Example 53, hydrochloride]
Reply | Negative

Ask | Please report Narcotic Antagonism for the following molecule: COc1ccc2c(c1)CCN(CC1CCC1)CC2
Reply | Negative

Ask | Please report Narcotic Antagonism for the following molecule: COc1ccc2c(c1)CCN(CC1CC1)CC2
Reply | Negative
